From: the supplement of paper PMC10126150

Test system: ATP;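 note: ATP exposure 15 min at 22 °C before imaging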
test method notes: switch fluorescence ratio, 500 uM ATP over buffer (Cy3 cluster intensity, sum of 5 cycles each) (fold (ratio)); higher = stronger signal-on switching upon ATP binding; sequences stand for … in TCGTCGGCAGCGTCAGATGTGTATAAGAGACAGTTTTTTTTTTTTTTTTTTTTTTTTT…TC
test settings: aptamer strand: ATP DNA aptamer (quencher-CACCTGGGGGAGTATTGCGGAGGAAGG + anchor), 100 nM annealed; ATP concentration: 500 uM
For each of the sequences below, state its switch fluorescence ratio.
Just the number.

Name the recorded switch fluorescence ratio of the sequence listed here: TTATCGGGG
0.942

Give the reported switch fluorescence ratio for this sequence. TATTAGGGGC
1.04

Tell us which switch fluorescence ratio value is on record for GGTTGAAGTA
0.989

Please look at this sequence and report its switch fluorescence ratio: CATGGGGCTA
1.02

For the sequence CATCAAGGTA , report switch fluorescence ratio.
1.04

Please give measured switch fluorescence ratio of the following entry: TTAAGGGATC
0.957

Provide switch fluorescence ratio value for the following sequence: TAGGGGGGAC
1.19

In one line, give reported switch fluorescence ratio of the entry TATTTAACTT .
1.01

Give the value of switch fluorescence ratio reported for the following: CCCGGCTGTT
1.02

Return reported switch fluorescence ratio. Input sequence: TCTGTTATCG
0.983

Tell me switch fluorescence ratio reported for AAGGGTATCC
1.02

Supply switch fluorescence ratio value. Item: CGGGGCTCCT
0.995

# return recorded switch fluorescence ratio for input TGGAATTACT
1.26

Consider the sequence GCAGGAGTAG . State its measured switch fluorescence ratio.
1.01

Return value of switch fluorescence ratio for input GGGGTTCACT , no commentary.
1.01

Name the recorded switch fluorescence ratio of the item AGGTTGAGGG in your answer.
0.984

Please give measured switch fluorescence ratio of the following entry: GGAGGGACTG
1.06

Write down switch fluorescence ratio measured for item TTTTTGTTAG
0.965

Input AACCAATCGT , output reported switch fluorescence ratio.
1.03

Read off the recorded switch fluorescence ratio for GAACGGCTG
1.07

Using known records, supply switch fluorescence ratio for TTTTAAACGT
1.04

Provide switch fluorescence ratio value for the following sequence: GGGGATTGAA
0.994

For the sequence CGCTGGGTGG , give its measured switch fluorescence ratio value.
1.02

Name the recorded switch fluorescence ratio of the item AGCGTCTGGG in your answer.
1.03

Return reported switch fluorescence ratio. Input sequence: AGAAAGGTAT
1.11

Quote switch fluorescence ratio reported for GAATTACTAT please.
1.04

Consider the sequence TTGTACTACC . State its measured switch fluorescence ratio.
1.16

State, in one line, measured switch fluorescence ratio of TTTTGCATGA
1

----------
Test system: ATP;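 note: ATP exposure 15 min at 22 °C before imaging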
test method notes: switch fluorescence ratio, 500 uM ATP over buffer (Cy3 cluster intensity, sum of 5 cycles each) (fold (ratio)); higher = stronger signal-on switching upon ATP binding; sequences stand for … in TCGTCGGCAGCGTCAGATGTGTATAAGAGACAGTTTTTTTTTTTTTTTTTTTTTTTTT…TC
test settings: aptamer strand: ATP DNA aptamer (quencher-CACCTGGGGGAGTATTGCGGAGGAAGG + anchor), 100 nM annealed; ATP concentration: 500 uM
readout kind: switch fluorescence ratio
Just the number, please.

Provide one value: measured switch fluorescence ratio of TTAGATCATG
1.01

Input AAAAAGGGCG , output reported switch fluorescence ratio.
0.989

Quote switch fluorescence ratio reported for TTCTGGTCTA please.
0.986

Give switch fluorescence ratio for the following sequence: GCGAGGTGGG
0.999

Determine from records and report switch fluorescence ratio for CGGGATGGCC
1

Please report switch fluorescence ratio for the following sequence: TGTACTATGG
1.01
